Test system: Trypanosoma cruzi
Assay: Antimicrobial activity against Trypanosoma cruzi
Format: functional, organism-based
Conditions: Trypanosoma cruzi

[
  {
    "compound": "N#CSCCOc1ccc(Nc2ccccc2)cc1",
    "units_symbol": "µM",
    "IC50": 3
  },
  {
    "compound": "N#CSCCOc1ccc2[nH]c3ccccc3c2c1",
    "units_symbol": "µM",
    "IC50": 10
  },
  {
    "compound": "C[C@]12CC[C@H](O)C[C@@H]1CC[C@@H]1[C@@H]2CC[C@@]2(C)[C@H]1CC[C@@H]2[C@@](C)(O)C1CCCNC1 (stereo partly specified)",
    "units_symbol": "µM",
    "IC50": 23
  },
  {
    "compound": "O=C(Cn1ccnc1[N+](=O)[O-])NCc1ccccc1 [BENZNIDAZOLE]",
    "units_symbol": "µM",
    "IC50": 3
  },
  {
    "compound": "COc1ccc2c(c1)cc1c3ccccc3nc-1n2C",
    "units_symbol": "µM",
    "IC50": 2
  },
  {
    "compound": "O=C(/C=C/C=C/c1ccc2c(c1)OCO2)N1CCCCC1 [PIPERINE]",
    "units_symbol": "µM",
    "IC50": 5
  }
]
